Sourced from ChEMBL document CHEMBL3433997

- SYSTEM_NAME: Solute carrier family 2, facilitated glucose transporter member 1 (Homo sapiens)
- TEST_DETAILS: ST_JUDE_LEISH: Cytotoxicity at 2uM final concentration against transgenic Leishmania Mexicana promastigotes LmGLUT1 that are glucose transport deficient and complemented with the human glucose transporter GLUT1. Activity is measured by DNA content using SYBR green in vitro
- Type: functional
This listing pairs molecules with measured inhibition.

| MOLECULE | SYSTEM_NAME | inhibition, % |
| --- | --- | --- |
| Cc1cccc2nc(-c3ccc(-c4cccc(CN5CCN(c6ccncc6)CC5)c4)cc3)[nH]c12 | Solute carrier family 2, facilitated glucose transporter member 1 (Homo sapiens) | 25.2 |
| O=C(Nc1cccc(CN2CCCN(Cc3cccc(Cl)c3)CC2)c1)c1ccc(-c2ccccc2)cc1 | Solute carrier family 2, facilitated glucose transporter member 1 (Homo sapiens) | 4.82 |
| NC(=O)c1cccc(C(=O)Nc2ccc(-c3cccc(-c4nc5cc(F)ccc5[nH]4)c3)cc2)c1 | Solute carrier family 2, facilitated glucose transporter member 1 (Homo sapiens) | 0.18 |
| CCOc1cc(C(=O)NC2CCN(Cc3ccccc3)C2)ccc1-c1nc2cc(Cl)ccc2[nH]1 (stereo unspecified) | Solute carrier family 2, facilitated glucose transporter member 1 (Homo sapiens) | 6.92 |
| CC(C)Cn1cc(C2CCN(CCN3CCC(CNC(=O)c4ccc(NC(=O)c5ccc(Cl)cc5)cc4)CC3)CC2)c2ccccc21 | Solute carrier family 2, facilitated glucose transporter member 1 (Homo sapiens) | 7.85 |
| COc1ccc(S(=O)(=O)NC2CCN(CCNC(=O)Nc3cc(C)nc4ccccc34)C2)cc1 (stereo unspecified) | Solute carrier family 2, facilitated glucose transporter member 1 (Homo sapiens) | -0.6 |
| O=C(CCCCCNC(=O)c1ccc(O)c(-c2cccc(C(F)(F)F)c2)c1)NCCN1CCCCC1 | Solute carrier family 2, facilitated glucose transporter member 1 (Homo sapiens) | 5.39 |
| CN(C)CC(=O)Nc1cccc(Nc2nccc(NCC(O)c3ccccc3)n2)c1 (stereo unspecified) | Solute carrier family 2, facilitated glucose transporter member 1 (Homo sapiens) | 1.36 |
| COc1cc(C(=O)NC2CCN(Cc3ccccc3)CC2)ccc1-c1nc2c(Cl)cc(C(F)(F)F)cc2[nH]1 | Solute carrier family 2, facilitated glucose transporter member 1 (Homo sapiens) | 5.51 |
| COc1ccc(OC)c(NC(=O)CSc2nc(-c3ccccc3Cl)ns2)c1 | Solute carrier family 2, facilitated glucose transporter member 1 (Homo sapiens) | 0.9 |
| CC(C)c1sc(N2CCN(C)CC2)nc1C(=O)NCCc1ccc(Br)cc1 | Solute carrier family 2, facilitated glucose transporter member 1 (Homo sapiens) | 3.06 |
| OC(CNc1ccnc(Nc2cccc(CCN3CCOCC3)c2)n1)c1ccccc1 (stereo unspecified) | Solute carrier family 2, facilitated glucose transporter member 1 (Homo sapiens) | 0.07 |
| CC1CN(c2ccc(NC(=O)c3ccsc3)cc2C(=O)N2CCN(Cc3ccc(C(C)(C)C)cc3)CC2)CC(C)O1 (stereo unspecified) | Solute carrier family 2, facilitated glucose transporter member 1 (Homo sapiens) | -1.24 |
| COc1ccc(Nc2ccnc3cc(Cl)ccc23)cc1OC | Solute carrier family 2, facilitated glucose transporter member 1 (Homo sapiens) | 10.1 |
| CCN(CC)/C(=N/C(=N)Nc1ccc(C)cc1)NCCCCCCN/C(=N\C(=N)Nc1ccc(C)cc1)N(CC)CC | Solute carrier family 2, facilitated glucose transporter member 1 (Homo sapiens) | 7.79 |
| CC1CNC(c2ccc(NC(=O)c3ccc(C(=O)Nc4ccc(C5=NC(C)CN5)cc4)cc3)cc2)=N1 (stereo unspecified) | Solute carrier family 2, facilitated glucose transporter member 1 (Homo sapiens) | 8.16 |
| Cc1ccc(Cl)cc1N1CCN(CCCNC(=O)C2CCN(c3nc4ccccc4[nH]3)CC2)CC1 | Solute carrier family 2, facilitated glucose transporter member 1 (Homo sapiens) | 4.49 |
| O=C(NCc1ccc(Cl)c(Cl)c1)c1ccc(C2CCN(Cc3ccc4[nH]cnc4c3)CC2)cc1 | Solute carrier family 2, facilitated glucose transporter member 1 (Homo sapiens) | 2.71 |
| Cn1c(Sc2ncnc3sccc23)nc2ccccc21 | Solute carrier family 2, facilitated glucose transporter member 1 (Homo sapiens) | 2.32 |
| CN(CCO)Cc1ccc(-c2ccc(NS(=O)(=O)c3cccc4cccnc34)cc2)cc1 | Solute carrier family 2, facilitated glucose transporter member 1 (Homo sapiens) | 75.1 |
| COc1ccc(C=CC(=O)Nc2ccc(N3CCCC3)cc2)cc1 | Solute carrier family 2, facilitated glucose transporter member 1 (Homo sapiens) | 1.15 |
| CCOc1cc(C(=O)NCCc2ccc(Cl)c(Cl)c2)ccc1-c1nc2cc(Cl)ccc2[nH]1 | Solute carrier family 2, facilitated glucose transporter member 1 (Homo sapiens) | 1.92 |
| Oc1ccc2ccccc2c1CNCC1CCCCC1 | Solute carrier family 2, facilitated glucose transporter member 1 (Homo sapiens) | 0.28 |
| CC[C@H](C)CNC(=O)c1cncc(-c2ccc(CNC3CCCC3)cc2)c1 | Solute carrier family 2, facilitated glucose transporter member 1 (Homo sapiens) | 2.12 |
| O=C(Nc1cccc(-c2nn3ccccc3c2-c2ccnc(Nc3cccc(F)c3)n2)c1)c1c(F)ccc(F)c1Cl | Solute carrier family 2, facilitated glucose transporter member 1 (Homo sapiens) | 9.38 |
| COc1ccc2ncc(C#N)c(CCN3C4CCC3CC(NCc3ccc5c(n3)NC(=O)CS5)C4)c2c1 (stereo unspecified) | Solute carrier family 2, facilitated glucose transporter member 1 (Homo sapiens) | 4.35 |
| COc1ccc2nc(C)cc(NC3Cc4ccccc4C3)c2c1 | Solute carrier family 2, facilitated glucose transporter member 1 (Homo sapiens) | 7.7 |
| CS(=O)(=O)c1ccccc1CNC(=O)c1ccc(-c2cccc(-c3nc4cc(C(F)(F)F)ccc4[nH]3)c2)cc1 | Solute carrier family 2, facilitated glucose transporter member 1 (Homo sapiens) | 2.96 |
| O=C(Nc1ccc(Cl)cc1)Nc1cccc(CCNCc2ccccc2)c1 | Solute carrier family 2, facilitated glucose transporter member 1 (Homo sapiens) | 0.95 |
| CC(C)C1C(O)=C(c2ccc3ccccc3c2)C(=O)N1CC1CCCCC1 (stereo unspecified) | Solute carrier family 2, facilitated glucose transporter member 1 (Homo sapiens) | 1.23 |
| NS(=O)(=O)c1cncc(-c2ccc3nccc(-c4cn[nH]c4)c3n2)c1 | Solute carrier family 2, facilitated glucose transporter member 1 (Homo sapiens) | 6.71 |
